Assay: PAMPA permeability
Settings: PAMPA, pH 7.4
Assay endpoint: Papp at 4 h (×10⁻⁶ cm/s)
Numbers only, in ×10⁻⁶ cm/s.

>  <Smiles entry>
COc1ccc2nccc(CCN3CCC(NCc4cnn(C(C)C)c4)CC3)c2n1

>  <Value unit>
×10⁻⁶ cm/s

>  <Quantitative readout>
3.3

$$$$
>  <Smiles entry>
COc1ccc2nccc(CCN3CCC(NCc4ccc(C(N)=O)cc4)CC3)c2n1

>  <Value unit>
×10⁻⁶ cm/s

>  <Quantitative readout>
0.31

$$$$
>  <Smiles entry>
COc1ccc2nccc(CCN3CCC(NCc4ccccc4)CC3)c2n1

>  <Value unit>
×10⁻⁶ cm/s

>  <Quantitative readout>
10.9

$$$$
>  <Smiles entry>
COc1ccc2nccc(CCN3CCC(NCc4ccc(OC(F)F)c(OC)c4)CC3)c2n1

>  <Value unit>
×10⁻⁶ cm/s

>  <Quantitative readout>
9

$$$$
>  <Smiles entry>
COc1ccc2nccc(CCN3CCC(NCc4cnn(-c5ccc(F)cc5)c4)CC3)c2n1

>  <Value unit>
×10⁻⁶ cm/s

>  <Quantitative readout>
14.2

$$$$
>  <Smiles entry>
COc1ccc2nccc(CCN3CCC(NCc4c(C)nc5c(C)cccn45)CC3)c2n1

>  <Value unit>
×10⁻⁶ cm/s

>  <Quantitative readout>
5.6

$$$$

Quick one: give me Papp at 4 h for each item below, same order please.
1. COc1ccc2nccc(CCN3CCC(NCc4ccc(I)cc4)CC3)c2n1
2. C=CCn1cc(CNC2CCN(CCc3ccnc4ccc(OC)nc34)CC2)cn1
3. COc1ccc2nccc(CCN3CCC(NCc4ccc(F)cc4)CC3)c2n1

[39.8, 4.1, 12.1]

Origin of values: paper PMC8300687
